- System: CAMK2D;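 further: KINOMEscan kinase panel screen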
- condition_set: concentration: 1 μM, replicates: in singlicate; n = 1
measured_property: %Inh (%)
Give bare numbers, in %.

Field: example entries. Status: answers known.
molecule | measured_target | value_measured
CC(C)(C)c1ccc(C(=O)Nc2cn3cc(Cl)ccc3n2)cc1 | CAMK2D | 3
Cc1nnc(-c2ccc3occ(-c4ccc(S(C)=O)cc4)c3c2)[nH]1 (stereo not drawn) | CAMK2D | 10
COc1cc(Nc2nccc(N3CCC(NC(=O)Nc4cc(C)ccc4C)C3)n2)cc(OC)c1OC (stereo not drawn) | CAMK2D | 0

Dear reader, for each entry below, please note its %Inh.
1. CC(=O)Nc1nc2cnc(Nc3cc(NC(=O)c4cccc(CCC#N)c4)ccc3C)nc2s1
2. CC1=C(C(=O)Nc2cc3cn[nH]c3cc2F)C(c2ccc(C(F)(F)F)cc2)CC(=O)N1 (stereo not drawn)
3. Fc1cc(Cl)ccc1Nc1ccnc2cc(-c3ccc(CN4CCCCC4)o3)ccc12
4. COc1ccccc1-c1ccc2c(NC(=O)C3CC3)n[nH]c2n1
5. O=C(Nc1ccc2c(c1)OCO2)NC1CCN(c2ccnc(Nc3ccc(F)cc3)n2)C1 (stereo not drawn)

Return:
[0, 0, 8, 16, 15]

Enquiry: Please report %Inh with CAMK2D for item `COc1ccc(Nc2nccc(NCCNC(=O)Nc3ccccc3F)n2)cc1` .
Return: 51
